test system: HGGX39 (paediatric high-grade glioma line); test: growth inhibition (% activity, log2 RLU normalised to DMSO / staurosporine); higher = more growth inhibition; conditions: 33 µM
Would you kindly list growth inhibition for each of these compounds?
Report the figure along with its unit, number first.

Batch lookup, growth inhibition per entry.
1. CN1CCN(c2c(F)cc3c(=O)c(C(=O)O)cn4c3c2OCN4C)CC1
2. O=C(N/N=C/c1ccc([N+](=O)[O-])o1)c1ccc(O)cc1
3. NC(=O)N/N=C/c1ccc([N+](=O)[O-])o1
4. O=C(CCCN1CC=C(n2c(=O)[nH]c3ccccc32)CC1)c1ccc(F)cc1
5. Fc1ccc(C(c2ccc(F)cc2)N2CCN(C/C=C/c3ccccc3)CC2)cc1
6. C#CCC(Cc1cnc2nc(N)nc(N)c2n1)c1ccc(C(=O)N[C@@H](CCC(=O)O)C(=O)O)cc1 (stereo not given in full)

Result block:
2.92%
11%
1.49%
-0.994%
9.77%
22.8%
